Provide the reported MIC of each item.
System: Serratia marcescens
experimentalProtocol: MIC against Gram-negative bacteria: Serratia marcescens
Format: cell-based
protocolConditions: S. marcescens; 10 h cultivation at 37° C.
Give bare numbers, in µg/mL.

substance	testedSystem	MIC (µg/mL)
PRT897 (DPNPCLSTPCKNAGTCHVVDRRGVADYACSCALGFSGPLCL; listed as Homo sapiens)	Serratia marcescens	25

Please supply MIC for each of the following items, keeping them in order.
1. PRT978 (DVDECASQPCQHGGSCIDLVARYLCSCPPGTLGVLCE; listed as Homo sapiens)
2. PRT974 (EADPCLSRPCLHGGVCSAAHPGFRCTCLESFTGPQCQ; listed as Homo sapiens)
3. PRT1038 (FDMPCDETLCSADSFCVNDYTWGGSRCQCTLGKGGESCS; listed as Homo sapiens)

1. 12.5
2. 12.5
3. 25

* * *

For each record, write down the corresponding MIC against E. coli BL21.
System: E. coli BL21
experimentalProtocol: MIC against Gram-negative bacteria: E. coli BL21
Type: cell-based
protocolConditions: E. coli BL21; 96-well plate, 5×10^5 CFU/mL, 37° C., 10 h
Numbers only, in µg/mL.

Below, 3 substances whose answers are already recorded.
substance	testedSystem	MIC against E. coli BL21 [µg/mL]
PRT1307 (HECPGGAETPCNGHGTCLDGMDRNGTCVCQENFRGSACQ; listed as Homo sapiens)	E. coli BL21	50
PRT1315 (FGPDCQSVCSCVHGVCNHGPRGDGSCLCFAGYTGPHCD; listed as Homo sapiens)	E. coli BL21	12.5
PRT1302 (QTSPCDQYECQNGAQCIVVQQEPTCRCPPGFAGPRCE; listed as Homo sapiens)	E. coli BL21	50

Kindly review the next substance as well.
API: value(readout= MIC against E. coli BL21, system= E. coli BL21, query= PRT1336 (DCNQCPGGFSNPCSGNGQCADSLGGNGTCICEEGFQGSQCQ; listed as Homo sapiens) )
50

* * *

Please go through the items and note down their MIC.
Tested on: Aeromonas hydrophila
experimentalProtocol: MIC against Gram-negative bacteria: Aeromonas hydrophila
Assay type: cell-based
protocolConditions: A. hydrophila; 10 h cultivation at 37° C.
Give bare numbers, in µg/mL.

substance	recordedEndpoint	valueReported
PRT1024 (DVDECQPSRCHPDAFCYNTPGSFTCQCKPGYQGDGFRCV; listed as Homo sapiens)	MIC	25
PRT988 (DVDECQLQPNACHNGGTCFNTLGGHSCVCVNGWTGESCS; listed as Homo sapiens)	MIC	50
PRT932 (QVNECLSNPCIHGNCTGGLSGYKCLCDAGWVGINCE; listed as Homo sapiens)	MIC	12.5
PRT923 (LDDACISNPCHKGALCDTNPLNGQYICTCPQGYKGADCT; listed as Homo sapiens)	MIC	50
PRT998 (VPLCAPNLCQPKQICKDQKDKANCLCPDGSPGCA; listed as Homo sapiens)	MIC	50
PRT926 (EINECQSNPCVNNGQCVDKVNRFQCLCPPGFTGPVCQ; listed as Homo sapiens)	MIC	50

Quick request: MIC for each listed item, please.
1. PRT1001 (EMTACHSGPCLNGGSCNPSPGGYYCTCPPSHTGPQCQ; listed as Homo sapiens)
2. PRT997 (EVDECLSDPCPVGASCLDLPGAFFCLCPSGFTGQLCE; listed as Homo sapiens)
3. PRT941 (EINECSSHPCLNEGTCVDGLGTYRCSCPLGYTGKNCQ; listed as Homo sapiens)
4. PRT977 (EVDPCLAQPCQHGGTCRGYMGGYMCECLPGYNGDNCE; listed as Homo sapiens)

[12.5, 12.5, 50, 25]

I would be grateful if you could provide MIC for each of the following entries.
1. PRT968 (LEDPCHSGPCAGRGVCQSSVVAGTARFSCRCPRGFRGPDCS; listed as Homo sapiens)
2. PRT927 (DIDDCSSTPCLNGAKCIDHPNGYECQCATGFTGVLCE; listed as Homo sapiens)
3. PRT1033 (LYVPCAPSPCVNGGTCRQTGDFTFECNCLPETVRRGTE; listed as Homo sapiens)
4. PRT1016 (RAGPCPPRGCSNGGTCQLMPEKDSTFHLCLCPPGFIGPDCE; listed as Homo sapiens)
5. PRT1011 (RAPSCGFHHCHHGGLCLPSPKPGFPPRCACLSGYGGPDCL; listed as Homo sapiens)
6. PRT930 (NFDDCASNPCIHGICMDGINRYSCVCSPGFTGQRCN; listed as Homo sapiens)
7. PRT1008 (ELDACQSQPCHNHGTCTPKPGGFHCACPPGFVGLRCE; listed as Homo sapiens)

1: 25; 2: 50; 3: 12.5; 4: 25; 5: 50; 6: 25; 7: 12.5

* * *

System: Pseudomonas aeruginosa
experimentalProtocol: MIC against Gram-negative bacteria: Pseudomonas aeruginosa
Type: cell-based
protocolConditions: 96-well plate, 5×10^5 CFU/mL, 37° C., 10 h
recordedEndpoint: MIC against P. aeruginosa (µg/mL)
One number for each entry, in µg/mL.

substance	testedSystem	MIC against P. aeruginosa, µg/mL
PRT494 (CNCSLVGSTHHRCDVVTGHCQCKSKFGGRACDQCSLGYRDFPDCVP; listed as Homo sapiens)	Pseudomonas aeruginosa	12.5
PRT502 (CECHGHAAECNVHGVCIACAHNTTGVHCEQCLPGFYGEPSRGTPGDCQP; listed as Homo sapiens)	Pseudomonas aeruginosa	12.5
PRT515 (CHCDPIGSLNEVCVKDEKHARRGLAPGSCHCKTGFGGVSCDRCARGYTGYPDCKA; listed as Homo sapiens)	Pseudomonas aeruginosa	25
PRT458 (ECSRLCRNGYCTPTGKCCCSPGWEGDFC; listed as Homo sapiens)	Pseudomonas aeruginosa	12.5
PRT539 (CDCSGNSDPNLIFEDCDEVTGQCRNCLRNTTGFKCERCAPGYYGDARIAKNCAV; listed as Homo sapiens)	Pseudomonas aeruginosa	12.5
PRT573 (CPCPDGPDSGRQFARSCYQDPVTLQLACVCDPGYIGSRCDDCASGYFGNPSEVGGSCQP; listed as Homo sapiens)	Pseudomonas aeruginosa	25

Hey, can you go through the list below and give me MIC against P. aeruginosa for every item?
1. PRT534 (CKCHKAGTVSGTGECRQGDGDCHCKSHVGGDSCDTCEDGYFALEKSNYFGCQG; listed as Homo sapiens)
2. PRT481 (EITACSSSPCFHDGTCVLDKAGSYKCACLAGYTGQRCE; listed as Homo sapiens)
3. PRT533 (GTINSNLGYCQCKLHVEGPTCSRCKLLYWNLDKENPSGCSE; listed as Homo sapiens)
4. PRT459 (RTAKCEPACRHGGVCVRPNKCLCKKGYLGPQCE; listed as Homo sapiens)
5. PRT504 (CDCSGNVDPSEAGHCDSVTGECLKCLGNTDGAHCERCADGFYGDAVTAKNCRA; listed as Homo sapiens)
6. PRT489 (CDNGGTWEQGQCACLPGFSGDRCQLQTRCQNG; listed as Homo sapiens)

1. 50
2. 25
3. 100
4. 25
5. 12.5
6. 12.5

Provide MIC against P. aeruginosa for all items below, preserving their order.
1. PRT484 (RCEDLDGVVCGGHGTCSCGRCVCERGWFGKLCQ; listed as Homo sapiens)
2. PRT532 (CWCSALGSYQMPCSSVTGQCECRPGVTGQRCDRCLSGAYDFPHCQGSSSACDP; listed as Homo sapiens)
3. PRT569 (CDCDLGGALNNSCFAESGQCSCRPHMIGRQC; listed as Homo sapiens)

1. 25
2. 12.5
3. 25

For every record below, what is its MIC against P. aeruginosa?
1. PRT470 (KCPQPCRNGGKCIGKSKCKCSKGYQGDLCS; listed as Homo sapiens)
2. PRT485 (QADPCKFLACGEFAQCVKNERTEEAECRCKPGYDSQGSL; listed as Homo sapiens)

1. 50
2. 50

Give one value of MIC against P. aeruginosa per listed substance.
1. PRT553 (CQCPGGRCDPHTGRCNCPPGLSGERCDTCSQQHQVPVPGGPVGHSIHCEV; listed as Homo sapiens)
2. PRT538 (CPCPLPHLANFAESCYRKNGAVRCICNENYAGPNCERCAPGYYGNPLLIGSTCKK; listed as Homo sapiens)
3. PRT521 (CNCNSFGSKSFDCEESGQCWCQPGVTGKKCDRCAHGYFNFQEGGCTA; listed as Homo sapiens)
4. PRT460 (DRDECSGGPSPCSHACLNAPGRFSCTCPTGFALAWDDRNCR; listed as Homo sapiens)
5. PRT535 (CQCDIGGALSSMCSGPSGVCQCREHVVGKVCQRPENNYYFPDLHH; listed as Homo sapiens)
6. PRT456 (DIDECADSEACGEARCKNLPGSYSCLCDEGFAYSSQEKACR; listed as Homo sapiens)
7. PRT554 (CNCESDFTDGTCEDLTGRCYCRPNFSGERCDVCAEGFTGFPSCYPT; listed as Homo sapiens)

[25, 25, 12.5, 12.5, 50, 50, 12.5]
